System: HOXB5 3′UTR
Assay: dual-luciferase 3′UTR reporter assay, pAC-HOXB5
Format: cell-based
Details: luciferase reporter with HOXB5 3′UTR, human Hela cell lines; average of at least two independent experiments
Could you label it 1.0 if measured Represion fold, HOXB5 is 0.9 fold or higher, and 0.0 otherwise?

Some solved cases for reference:
- 5′-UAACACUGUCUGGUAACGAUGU-3′ (listed as RNA, chemistry not given here) [miR-200a]: 1.0
- 5′-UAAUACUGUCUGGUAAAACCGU-3′ (listed as RNA, chemistry not given here) [miR-429]: 0.0
- 5′-UAAUACUGCCGGGUAAUGAUGGA-3′ [miR-200c]: 0.0

Query: Confirm if Represion fold, HOXB5 reported for the substance 5′-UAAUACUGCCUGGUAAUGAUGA-3′ (listed as RNA, chemistry not given here) [miR-200b] is 0.9 fold or above.
Result: 0.0
